Biological target: T1, UNK ZnF1-3 (human, UniProt Q9C0B0 31-174)
T1 sequence: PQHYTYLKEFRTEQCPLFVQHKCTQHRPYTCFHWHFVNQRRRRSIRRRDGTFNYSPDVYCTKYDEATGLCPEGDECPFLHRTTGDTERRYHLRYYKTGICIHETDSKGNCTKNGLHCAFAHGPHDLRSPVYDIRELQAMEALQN
Assay: nsRBNS (natural sequence RNA bind-n-seq); RBNS binding buffer (assumed for nsRBNS): 25 mM Tris pH 7.5, 150 mM KCl, 3 mM MgCl2, 0.01% Triton X-100, 500 ug/ml BSA, 20 U/ml SUPERase-In, 4 C; UNK is unkempt and MSI1 is Musashi-1; names of the RNAs are library labels; protein concentration not given here; high values mean tight binding
The full ranking holds about 24,000 sequences; the median of “enrichment r” is about 0.99, and the highest 2% start at about 3.7. This excerpt belongs to a sample that is enriched for the highest values.
parameter: binding signal (enrichment R)
Numbers only, in enrichment R.

For each entry beneath this line, provide reported binding signal.
1. chr3:9412954:9412955:+_ENSG00000134077_ENST00000452837|hu_mus|hu_hu_hu_mus_False|1_78 (ssRNA) RNA: GGGAGUUCUACAGUCCGACGAUCGGUUGAUAUCUCUUCUUUGAUGGCUGGAUUUUCAUAAUAAUCUAAGAUAUGUGAAUCUGAAGUGCUGCUGGCAUGCUUUUUCUUACCAUCUUUCUCAUCUGCUUUGUCUCCUUGUCCAUUCAACAGAGGAUUGAGCAUCA
2. 23382874_23385586_565_CDS_ENSMUSG00000026158_ENSMUST00000027343|mouse|control|control (ssRNA) RNA: GGGAGUUCUACAGUCCGACGAUCUUCUCUCAGGGGGAAAAGCCAUUGGAUGUACGUGUGGUUGUGCUCCAGCUUCUCGUAGUCCCCUUUCCACUUAUUUAGAACCUCUUCAAUGUAAACACCAUCCGGCUUAAAUGGAAUUUUCAACAGAGGAUUGAGCAUCA

[0.44, 0.65]
